assay: Metabolic stability in C57Bl/6 mouse liver microsomes assessed as half life by LC-MS/MS analysis; format: ADME, Microsome

COMPOUND STRING: CC(C)(C#Cc1ccc(-c2ccc(Cl)c3c(NS(=O)(=O)C4CC4)nn(CC(F)(F)F)c23)c([C@H](Cc2cc(F)cc(F)c2)NC(=O)Cn2nc(C(F)(F)F)c3c2C(F)(F)[C@@H]2C[C@H]32)n1)S(C)(=O)=O
half-life, h: 7.2

---

target: UniProtKB Q76129; test: Inhibition of HIV 1 capsid CTD dimerization incubated for 5 hrs by TR-FRET assay
Sequence (Q76129 whole entry): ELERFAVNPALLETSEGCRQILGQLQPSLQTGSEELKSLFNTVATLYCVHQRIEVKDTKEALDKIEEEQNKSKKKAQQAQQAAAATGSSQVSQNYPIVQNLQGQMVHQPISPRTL
pIC50: −log10 of the molar value.
MEASURE NAME: pIC50

COMPOUND STRING: O=c1c2ccccc2[se]n1-c1ccccc1
TEST RESULT: 7.33

Sourced from ChEMBL document CHEMBL5096168
